Each recorded value in this set is attributed to ChEMBL document CHEMBL1201862.

Readings of EC50 for the listed compounds
assay: cells; format: functional, cell-based
Active and inactive are the calls of the source.

Past entries and their recorded results:
CCCCC(=O)NC(c1ccccc1OC)c1ccc2cccnc2c1O (centres undefined) :: 6.29 µM (active)
CCN(CC)c1ccc(/C=N/NC(=O)c2c(Cl)cnn2C)c(O)c1 :: 6.42 µM (active)
COc1ccc(OC)c(Nc2nc(NCCC(C)C)nc(N)c2[N+](=O)[O-])c1 :: > 350 µM (not active)

What does the data say about its EC50? Entry: Cc1ccn2cc(-c3ccc(O)c(O)c3)nc2c1
> 350 µM (not active)

---

Some compounds, each annotated with its measured IC50.
target: Rac GTPase-activating protein 1 (Homo sapiens, UniProt Q9H0H5); assay: blockers of MgcRacGAP-driven Rac1 GTP hydrolysis – biochemical, ADP Hunter fluorescence, primary and confirmatory, confirmation (AID 624330); format: functional
Sequence (Q9H0H5 whole entry): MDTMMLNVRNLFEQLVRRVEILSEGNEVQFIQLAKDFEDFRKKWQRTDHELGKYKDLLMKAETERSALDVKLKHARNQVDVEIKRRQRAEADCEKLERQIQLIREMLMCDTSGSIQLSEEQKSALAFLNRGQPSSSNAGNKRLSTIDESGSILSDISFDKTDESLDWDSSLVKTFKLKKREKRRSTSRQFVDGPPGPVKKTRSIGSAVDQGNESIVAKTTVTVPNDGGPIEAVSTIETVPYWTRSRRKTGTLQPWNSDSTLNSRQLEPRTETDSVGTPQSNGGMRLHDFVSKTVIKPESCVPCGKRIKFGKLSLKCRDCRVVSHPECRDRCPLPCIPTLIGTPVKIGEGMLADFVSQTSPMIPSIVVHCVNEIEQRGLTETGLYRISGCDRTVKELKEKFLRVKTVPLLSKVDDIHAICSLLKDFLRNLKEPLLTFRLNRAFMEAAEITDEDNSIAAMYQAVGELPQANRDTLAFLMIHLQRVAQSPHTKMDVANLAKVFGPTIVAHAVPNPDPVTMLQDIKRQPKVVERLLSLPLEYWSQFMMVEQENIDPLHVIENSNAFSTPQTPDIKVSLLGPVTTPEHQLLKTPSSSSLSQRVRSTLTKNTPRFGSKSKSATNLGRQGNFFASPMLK
Active and inactive are the calls of the source.

CCOc1cc(CNc2ccc(N3CCOCC3)cc2)cc(Br)c1OCC :: 19.6 µM (active)

Request - read-out IC50 | tested on Rac GTPase-activating protein 1 (Homo sapiens, UniProt Q9H0H5) | compound Cc1cs/c(=N\N=C\c2ccc(O)cc2)n1Cc1ccco1
28.8 µM (active)

Query the reported IC50 for Rac GTPase-activating protein 1 (Homo sapiens, UniProt Q9H0H5); item: COc1cc(C(C[N+](=O)[O-])c2c(N)n(C)c(=O)n(C)c2=O)ccc1O (stereo not drawn)
111 µM (active)

Request - read-out IC50 | tested on Rac GTPase-activating protein 1 (Homo sapiens, UniProt Q9H0H5) | compound COc1cc(CN2CCN(c3ccccc3F)CC2)cc(OC)c1O
143 µM (active)

Tell me reported IC50 for O=C(O)c1c2c(nc3ccccc13)/C(=C/c1ccc(O)cc1)CCC2 , tested with Rac GTPase-activating protein 1 (Homo sapiens, UniProt Q9H0H5).
46.6 µM (active)

Lookup: IC50 / Rac GTPase-activating protein 1 (Homo sapiens, UniProt Q9H0H5) / c1ccc(-c2nnc3n2NC(c2ccc4c(c2)OCO4)S3)cc1 (stereo not drawn)
153 µM (active)

IC50 of CCN(CC)Cc1cc(Nc2c3ccccc3nc3c4ccccc4n(C)c23)cc(CN(CC)CC)c1O on Rac GTPase-activating protein 1 (Homo sapiens, UniProt Q9H0H5)?
22.1 µM (active)
